biological target: Muscarinic acetylcholine receptor M5 (Homo sapiens) (UniProt P08912); assay: CHRM5 activators raising intracellular calcium – CHO-K1 cells, Fluo-8 calcium fluorescence, primary screen (AID 624037); conditions: CHO-K1 hM5 cells, at 3 µM, hits give high values, 0% DMSO wells, 100% maximal acetylcholine response;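 also: signal is peak over basal fluorescence ratio across the kinetic read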
Sequence (P08912 whole entry, looked up): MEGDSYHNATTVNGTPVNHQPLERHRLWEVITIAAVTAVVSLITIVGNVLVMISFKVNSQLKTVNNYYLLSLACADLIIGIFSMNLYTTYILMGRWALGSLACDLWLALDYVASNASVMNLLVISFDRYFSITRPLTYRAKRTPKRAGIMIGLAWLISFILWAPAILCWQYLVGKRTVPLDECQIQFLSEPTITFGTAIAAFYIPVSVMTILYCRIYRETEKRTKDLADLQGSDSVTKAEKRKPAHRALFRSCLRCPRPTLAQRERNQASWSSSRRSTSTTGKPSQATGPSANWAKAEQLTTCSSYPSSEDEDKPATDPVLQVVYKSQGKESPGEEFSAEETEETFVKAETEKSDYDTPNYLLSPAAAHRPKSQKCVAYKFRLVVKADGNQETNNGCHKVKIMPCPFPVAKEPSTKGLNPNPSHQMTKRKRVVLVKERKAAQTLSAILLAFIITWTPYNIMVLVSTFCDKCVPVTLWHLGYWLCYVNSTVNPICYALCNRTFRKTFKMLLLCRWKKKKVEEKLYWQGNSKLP
Among all 360,000 compounds or so, about 700 (0.19%) were called active. This excerpt belongs to a sample that is enriched for actives.
result.type: activation (%)
Expressed in %, but write only the number.

Guide cases for activation, answers given:
{"compound": "CCOCCCNC(=O)c1ccc(CS(=O)(=O)c2cccc(C(F)(F)F)c2)o1", "target.or.test.system": "Muscarinic acetylcholine receptor M5 (Homo sapiens) (UniProt P08912)", "result.type": "activation", "uom": "%", "measured": -2.51}
{"compound": "Cc1cccc(N=C2NC(=O)CS2)c1C", "target.or.test.system": "Muscarinic acetylcholine receptor M5 (Homo sapiens) (UniProt P08912)", "result.type": "activation", "uom": "%", "measured": 2.4}
{"compound": "COC(=O)c1sccc1-n1cccc1C(=O)C(=O)N1CCCCC1", "target.or.test.system": "Muscarinic acetylcholine receptor M5 (Homo sapiens) (UniProt P08912)", "result.type": "activation", "uom": "%", "measured": -2.31}
{"compound": "COc1cc(N2C(=O)CC3(CCCC3)CC2=O)cc(OC)c1OC", "target.or.test.system": "Muscarinic acetylcholine receptor M5 (Homo sapiens) (UniProt P08912)", "result.type": "activation", "uom": "%", "measured": 1.4}
{"compound": "CCC1(C(=O)c2ccccc2)C(c2cccc([N+](=O)[O-])c2)C1(C(=O)OC)C(=O)OC (stereo unspecified)", "target.or.test.system": "Muscarinic acetylcholine receptor M5 (Homo sapiens) (UniProt P08912)", "result.type": "activation", "uom": "%", "measured": -4.52}

Task item: Reported activation for Muscarinic acetylcholine receptor M5 (Homo sapiens) (UniProt P08912), given Cn1c(=O)[nH]c(=O)c2c1[nH]c(=S)n2Cc1ccccc1 ?
Reply: -2.82
